Ref: ChEMBL document CHEMBL2311439

# Experiment Summary: Oral bioavailability in Sprague-Dawley rat at 12 mg/kg
# Type: ADME, organism-based
# Condition Label: in vivo
Metric: bioavailability (%)
One number for each entry, in %.

Which bioavailability reading was recorded for the molecule "C/C(=C1\CCOC(=O)S1)N(C=O)CCCCCCCCCCCCN(C=O)/C(C)=C1\CCOC(=O)S1" ?
15
